pIC50: −log10 of the molar value.
Assay read-out pIC50; system under study: 5-hydroxytryptamine receptor 1A (Rattus norvegicus).
Sequence (P19327 whole entry): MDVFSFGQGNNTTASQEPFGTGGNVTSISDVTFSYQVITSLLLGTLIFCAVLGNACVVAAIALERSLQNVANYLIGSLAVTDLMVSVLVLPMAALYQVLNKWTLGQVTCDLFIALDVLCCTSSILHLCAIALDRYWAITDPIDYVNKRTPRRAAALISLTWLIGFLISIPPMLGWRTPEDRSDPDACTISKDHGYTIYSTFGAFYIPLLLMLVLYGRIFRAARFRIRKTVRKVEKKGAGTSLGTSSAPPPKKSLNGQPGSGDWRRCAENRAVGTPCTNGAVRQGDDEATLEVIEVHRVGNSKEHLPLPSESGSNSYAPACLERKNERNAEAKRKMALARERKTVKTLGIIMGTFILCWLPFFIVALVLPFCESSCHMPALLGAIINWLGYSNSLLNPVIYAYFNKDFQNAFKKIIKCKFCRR
TEST_READOUT: pIC50

compound="OC1(c2ccc3c(c2)OCO3)CCC(N2CCN(Cc3ccc(F)cc3)CC2)CC1 (stereo not given)" assay_system="5-hydroxytryptamine receptor 1A (Rattus norvegicus)" test_readout=pIC50 quantitative_readout=7.57
compound="OC1(c2ccc3c(c2)OCO3)CCC(N2CCN(Cc3ccccc3F)CC2)CC1 (stereo not given)" assay_system="5-hydroxytryptamine receptor 1A (Rattus norvegicus)" test_readout=pIC50 quantitative_readout=8.00
compound="COc1cccc(C2(O)CCC(N3CCN(Cc4ccccc4)CC3)CC2)c1 (stereo not given)" assay_system="5-hydroxytryptamine receptor 1A (Rattus norvegicus)" test_readout=pIC50 quantitative_readout=7.30
compound="OC1(c2ccc3c(c2)OCO3)CCC(N2CCN(Cc3ccccc3I)CC2)CC1 (stereo not given)" assay_system="5-hydroxytryptamine receptor 1A (Rattus norvegicus)" test_readout=pIC50 quantitative_readout=8.92
compound="OC1(c2ccc3c(c2)OCO3)CCC(N2CCN(Cc3cccc(F)c3)CC2)CC1 (stereo not given)" assay_system="5-hydroxytryptamine receptor 1A (Rattus norvegicus)" test_readout=pIC50 quantitative_readout=7.89

Values were extracted from ChEMBL document CHEMBL1136272.
